# tested-target: FL-CHK1 (Homo sapiens, UniProt O14757)
# Construct: C-terminally His-tagged full-length human CHK1 (FL-CHK1); 6xHis (C); made in house; host or cells: baculovirus/insect cells
# Sequence (O14757 whole entry): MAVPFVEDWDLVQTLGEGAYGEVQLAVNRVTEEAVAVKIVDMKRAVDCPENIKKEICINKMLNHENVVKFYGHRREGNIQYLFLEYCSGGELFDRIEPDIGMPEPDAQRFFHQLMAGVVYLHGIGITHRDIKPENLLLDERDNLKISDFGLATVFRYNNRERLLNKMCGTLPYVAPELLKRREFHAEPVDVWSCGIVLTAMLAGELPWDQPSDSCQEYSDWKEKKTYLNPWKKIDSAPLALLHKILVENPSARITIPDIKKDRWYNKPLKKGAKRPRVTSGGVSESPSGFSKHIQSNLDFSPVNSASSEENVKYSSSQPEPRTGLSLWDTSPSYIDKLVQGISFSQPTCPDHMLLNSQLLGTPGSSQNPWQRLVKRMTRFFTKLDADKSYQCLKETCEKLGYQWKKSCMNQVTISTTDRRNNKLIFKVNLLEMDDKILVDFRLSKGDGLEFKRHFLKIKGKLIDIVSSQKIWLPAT
# assay-text: CHK1 assay
# Assay type: biochemical
# stated-conditions: 20 μM; combinatorial library compounds
Lab note: compare inhibition at 20 µM against 10%. Equal or greater, write Yes. Smaller, write No.

>>> label_class("Nc1nc(Nc2ccc(S(N)(=O)=O)cc2)sc1-c1nc(-c2ccccc2OC(=O)c2ccccc2)cs1")
"No"
>>> label_class("CC(C)c1ccc(Nc2nc(N)c(-c3nc(-c4ccc(C#N)cc4)cs3)s2)cc1")
"No"
>>> label_class("CC(C)c1ccc(Nc2nc(N)c(-c3nc(-c4csc5ccccc45)cs3)s2)cc1")
"No"
>>> label_class("Cc1cc(-c2csc(-c3sc(Nc4ccc(S(N)(=O)=O)cc4)nc3N)n2)cc(C)c1O")
"Yes"
>>> label_class("Nc1nc(Nc2ccc(S(N)(=O)=O)cc2)sc1-c1nc(-c2ccccc2)cs1 [drawing 421]")
"Yes"

---

# tested-target: FL-CHK1 (Homo sapiens)
# Construct: C-terminally His-tagged full-length human CHK1 (FL-CHK1); 6xHis (C); made in house; host or cells: baculovirus/insect cells
# assay-text: CHK1 assay
# Type: biochemical
# stated-conditions: 20 μM; combinatorial library compounds
Recorded CHK1 % Inhibition at 20 μM, one value per entry.
endpoint-label: CHK1 % Inhibition at 20 μM (%)

>>> test_result("Nc1nc(Nc2ccc(S(N)(=O)=O)cc2)sc1-c1nc(-c2ccccc2)cs1 [drawing 435]")
12.3
>>> test_result("COc1ccc(-c2csc(-c3sc(Nc4ccc(N(C)C)cc4)nc3N)n2)cc1 [drawing 525]")
2.7
>>> test_result("CC(C)c1ccc(Nc2nc(N)c(-c3nc(-c4ccccc4)cs3)s2)cc1 [drawing 498]")
0.2
>>> test_result("COc1ccc(-c2csc(-c3sc(Nc4ccc(C(C)C)cc4)nc3N)n2)cc1 [drawing 488]")
14.2
>>> test_result("Cc1c(-c2csc(-c3sc(Nc4ccc(C(C)C)cc4)nc3N)n2)sc2ccc(Cl)cc12 [drawing 489]")
17.8
>>> test_result("COc1ccc(-c2csc(-c3sc(Nc4ccc(N(C)C)cc4)nc3N)n2)cc1 [drawing 551]")
34.8
>>> test_result("CN(C)c1ccc(Nc2nc(N)c(-c3nc(-c4ccccc4)cs3)s2)cc1 [drawing 561]")
17.5
>>> test_result("Cc1c(-c2csc(-c3sc(Nc4ccc(S(N)(=O)=O)cc4)nc3N)n2)sc2ccc(Cl)cc12 [drawing 424]")
28.4
>>> test_result("Cc1c(-c2csc(-c3sc(Nc4ccc(S(N)(=O)=O)cc4)nc3N)n2)sc2ccc(Cl)cc12 [drawing 426]")
9.7
>>> test_result("CC(C)c1ccc(Nc2nc(N)c(-c3nc(-c4ccccc4)cs3)s2)cc1 [drawing 484]")
4
>>> test_result("COc1ccc(-c2csc(-c3sc(Nc4ccc(S(N)(=O)=O)cc4)nc3N)n2)cc1 [drawing 425]")
10.7
>>> test_result("Cc1c(-c2csc(-c3sc(Nc4ccc(N(C)C)cc4)nc3N)n2)sc2ccc(Cl)cc12 [drawing 552]")
26.8
>>> test_result("COc1ccc(-c2csc(-c3sc(Nc4ccc(C(C)C)cc4)nc3N)n2)cc1 [drawing 462]")
4.7

The origin of these recorded values is patent US6620828B2.
